Every entry's value here was drawn from patent US9464106B2.

Give measured Average duplex melting temp. for each item. Keep answers brief.
Test system: yeast HSP78 (YDR258C) sequence
experimental-protocol: Duplex melting temperatures of HSP78 25-mer capture probes (UV spectrophotometer)
run-conditions: 25-mer capture probe duplex with complementary target; design PM = perfectly matched, MM = single mismatch; DNA, LNA_T (T) or LNA_TC (TC) substituted
l = locked nucleic acid (LNA); d = 2'-deoxy (DNA)
Supply the numeric figure in °C, leaving out any unit text.

Asked: Requested field: Average duplex melting temp.. Item: 12685 (DNA GACAGCCTCAGTAAATTGGCCACCA; DNA, backbone not given here) [compound 12685]
Given back: 64.8

Asked: Try 12723 (DNA CACTCTAACAGTATCGCCGTTTCTA; sugars from the 5' end dddldldddddddddddddllldld, backbone not given here) [compound 12723] next.
Given back: 69.7

Asked: Try 12701 (DNA AAAACGACAGCAAAAGGCTTTCTTC; DNA, backbone not given here) [compound 12701] next.
Given back: 58.8

Asked: Try 12712 (DNA GACCTAAGAACAAAAAGCTGGCAAT; sugars from the 5' end d4 l1 d13 l1 d6, backbone not given here) [compound 12712] next.
Given back: 61.1

Asked: Try 12698 (DNA TTTTTCGGCCAATCGATCTTGAATT; DNA, backbone not given here) [compound 12698] next.
Given back: 58.8

Asked: Try 12715 (DNA GCAATGGCCTCGACTTGGCCAACGA; DNA at ACG, LNA at T, backbone not given here) [compound 12715] next.
Given back: 73.7

* * *

Test system: complementary single stranded DNA (3′-ctgNatcc)
experimental-protocol: Melting temperatures of DNA and LNA 8-mers containing inosine, 2,6-diaminopurine or 2-aminopurine against complementary DNA
Assay type: binding
run-conditions: duplex 2.5 μM; 0.1M NaCl; 10 mM Na-phosphate (pH 7.0); 1 mM EDTA
measured-property: Tm of the duplex with 3′-ctggatcc (°C)
Supply the numeric figure in °C, leaving out any unit text.

Asked: Value wanted: Tm of the duplex with 3′-ctggatcc (complementary single stranded DNA (3′-ctgNatcc)) of entry 5′-GACITAGG [Entry 13]
Given back: 43.0

Asked: Try 5′-GDCDTDGG [Entry 12] next.
Given back: 54.7

Asked: Try 5′-GACTTAGG [Entry 9] next.
Given back: 36.4

Asked: Try 5′-GACATAGG [Entry 8] next.
Given back: 43.4

Asked: Try 5′-GACDTAGG [Entry 11] next.
Given back: 41.4

* * *

Tested on: yeast HSP78 (YDR258C) sequence
experimental-protocol: Duplex melting temperatures of HSP78 25-mer capture probes (UV spectrophotometer)
run-conditions: 25-mer capture probe duplex with complementary target; design PM = perfectly matched, MM = single mismatch; DNA, LNA_T (T) or LNA_TC (TC) substituted
l = locked nucleic acid (LNA); [5mC] = 5-methylcytosine; d = 2'-deoxy (DNA)
Average duplex melting temp. strictly less than 70 °C = yes (1). Otherwise no (0).

Asked: State whether 70 °C exceeds Average duplex melting temp. recorded for 12732 (DNA GAAACATCGGGGAGCGCTTTTTCAA; sugars from the 5' end ddddldllddddddldddddldldd, [5mC] at 5, 8, 15, 23, backbone not given here) [compound 12732] .
Given back: no (0)

Asked: Try 12782 (DNA CCGATTAAACGAGAGACAGTATGCT; sugars from the 5' end ddddlldddddddddddddldlddd, backbone not given here; further chemistry not fully specified) [compound 12782] next.
Given back: no (0)

Asked: Try 12680 (DNA ACCATCATCACCGAACTTTGTGTCG; DNA, backbone not given here) [compound 12680] next.
Given back: yes (1)

Asked: Try 12744 (DNA TTTGGTAGCACGTCAAGCTTAGTAT; sugars from the 5' end ldlddlddldlddddddldlddldd, [5mC] at 9, 11, 18, backbone not given here) [compound 12744] next.
Given back: no (0)

Asked: Try 12729 (DNA CAATGATCGTGTTACGGAAATCAAC; sugars from the 5' end lddlddlldlddddldddddllddd, [5mC] at 1, 8, 15, 22, backbone not given here; further chemistry not fully specified) [compound 12729] next.
Given back: no (0)

Asked: Try 12693 (DNA TCAGTTAGCCAAACCTTCGCTTCAT; DNA, backbone not given here) [compound 12693] next.
Given back: yes (1)

Asked: Try 12682 (DNA TGGCCTAGGGAAACGGTCAGCTTAC; DNA, backbone not given here) [compound 12682] next.
Given back: yes (1)

Asked: Try 12743 (DNA AGACGTACAGCAACAGAAATAGCAG; sugars from the 5' end dddldldlddlddddddddlddldd, [5mC] at 4, 8, 11, 23, backbone not given here) [compound 12743] next.
Given back: no (0)

Asked: Try 12812 (DNA GATGAACTCAGGTGGATAGGATCTT; sugars from the 5' end ddldddllldddldddlddddllld, all C 5-methyl, backbone not given here; further chemistry not fully specified) [compound 12812] next.
Given back: no (0)

Asked: Try 12795 (DNA CACTCTAACAGTTTCGCCGTTTCTA; sugars from the 5' end dddldlddddddlddddddllldld, backbone not given here; further chemistry not fully specified) [compound 12795] next.
Given back: no (0)

Asked: Try 12789 (DNA TCAGTTAGCCAATCCTTCGCTTCAT; sugars from the 5' end ldddllddddddlddlldddllddd, backbone not given here; further chemistry not fully specified) [compound 12789] next.
Given back: no (0)

Asked: Try 12748 (DNA TCAATGGCCTTGGACCATATAATTG; sugars from the 5' end llddlddldllddddldldlddlld, [5mC] at 2, 8, 16, backbone not given here) [compound 12748] next.
Given back: no (0)

Asked: Try 12759 (DNA ATCAAATAGGAATTCAGCTAAAGCC; DNA, backbone not given here; further chemistry not fully specified) [compound 12759] next.
Given back: yes (1)

Asked: Try 12768 (DNA TTTGGTAGCACGACAAGCTTAGTAT; DNA, backbone not given here) [compound 12768] next.
Given back: yes (1)

Asked: Try 12783 (DNA ATCAAATAGGAATTCAGCTAAAGCC; DNA at ACG, LNA at T, backbone not given here; further chemistry not fully specified) [compound 12783] next.
Given back: yes (1)

Asked: Try 12776 (DNA ACCATCATCACCCAACTTTGTGTCG; DNA at ACG, LNA at T, backbone not given here; further chemistry not fully specified) [compound 12776] next.
Given back: no (0)
